Test system: spontaneous hypertensive rats (SHR)
Assay: Antihypertensive effect in spontaneous hypertensive rats (SHR)
Format: in vivo
Conditions: in words
VALUE_TYPE: peripheral or central action

COMPOUND: CC(C)N1CCN(CCN2CCN([C@@H]3C[C@@H](c4ccc(F)cc4)c4ccc(F)cc43)CC2)C1=O (relative stereo)
TESTED_SYSTEM: spontaneous hypertensive rats (SHR)
VALUE: marked central effects
--
COMPOUND: CCN1CCN(CCN2CCN([C@@H]3C[C@@H](c4ccc(F)cc4)c4ccc(F)cc43)CC2)C1=O (relative stereo)
TESTED_SYSTEM: spontaneous hypertensive rats (SHR)
VALUE: marked central effects
--
COMPOUND: OCCN1CCN([C@@H]2C[C@@H](c3ccc(F)cc3)c3ccc(C(F)(F)F)cc32)CC1 (racemic) [Tefludazine, reference compound]
TESTED_SYSTEM: spontaneous hypertensive rats (SHR)
VALUE: marked central effects

---

Biological target: 5-HT2 receptors (Rattus norvegicus, UniProt P14842)
Construct: Rat whole cortex was homogenized by an Ultra Turrax homogenizer
Sequence (P14842 whole entry): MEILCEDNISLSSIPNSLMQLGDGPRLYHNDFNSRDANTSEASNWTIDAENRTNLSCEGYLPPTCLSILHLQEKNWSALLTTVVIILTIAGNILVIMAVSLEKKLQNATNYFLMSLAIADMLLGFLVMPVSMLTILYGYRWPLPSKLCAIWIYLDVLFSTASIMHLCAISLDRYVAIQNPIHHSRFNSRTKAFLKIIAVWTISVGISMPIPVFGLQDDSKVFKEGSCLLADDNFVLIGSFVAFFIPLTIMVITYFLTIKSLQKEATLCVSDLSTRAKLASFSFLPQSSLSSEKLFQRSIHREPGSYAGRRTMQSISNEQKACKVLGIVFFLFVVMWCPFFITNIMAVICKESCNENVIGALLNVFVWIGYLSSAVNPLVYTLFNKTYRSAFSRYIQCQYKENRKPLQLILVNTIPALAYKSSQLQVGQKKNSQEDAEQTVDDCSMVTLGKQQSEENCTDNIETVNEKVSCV
Assay: 3H-spiroperidol binding to 5-HT2 receptors
Settings: rat whole cortex, 0.5 nM 3H-spiroperidol, 0.3 μM sulpiride; read-out: 3H-SPI binding 5-HT2 IC50
Please use 1 for IC50 under 10 nM and 0 for everything else, ties included.

COMPOUND: O=C1CCCN1CCN1CCN([C@@H]2C[C@@H](c3ccc(F)cc3)c3ccc(F)cc32)CC1 (relative stereo)
TESTED_SYSTEM: 5-HT2 receptors (Rattus norvegicus, UniProt P14842)
CAT: 0

COMPOUND: CN1CCC(CCN2CCN([C@H]3C[C@H](c4ccc(F)cc4)c4ccccc43)CC2)C1=O (relative stereo)
TESTED_SYSTEM: 5-HT2 receptors (Rattus norvegicus, UniProt P14842)
CAT: 0

COMPOUND: Fc1ccc([C@@H]2C[C@@H](N3CCN(CCN4CCNC4=S)CC3)c3ccccc32)cc1 (relative stereo)
TESTED_SYSTEM: 5-HT2 receptors (Rattus norvegicus, UniProt P14842)
CAT: 1

COMPOUND: Fc1ccc([C@@H]2C[C@@H](N3CCN(CCN4CCCNC4=S)CC3)c3cc(F)ccc32)cc1 (relative stereo)
TESTED_SYSTEM: 5-HT2 receptors (Rattus norvegicus, UniProt P14842)
CAT: 1

COMPOUND: O=C1NCCN1CCN1CCN([C@@H]2C[C@@H](c3ccc(F)cc3)c3ccccc32)CC1 (relative stereo) [compound 1]
TESTED_SYSTEM: 5-HT2 receptors (Rattus norvegicus, UniProt P14842)
CAT: 0

COMPOUND: CCN1CCN(CCN2CCN([C@@H]3C[C@@H](c4ccc(F)cc4)c4ccc(F)cc43)CC2)C1=O (relative stereo)
TESTED_SYSTEM: 5-HT2 receptors (Rattus norvegicus, UniProt P14842)
CAT: 1

COMPOUND: O=c1[nH]c2ccccc2n1CCN1CCN([C@@H]2C[C@@H](c3ccc(F)cc3)c3ccc(F)cc32)CC1 (relative stereo)
TESTED_SYSTEM: 5-HT2 receptors (Rattus norvegicus, UniProt P14842)
CAT: 1

COMPOUND: Fc1ccc([C@@H]2C[C@@H](N3CCN(CCN4CCNC4=S)CC3)c3cc(F)ccc32)cc1 (single isomer, unassigned) [+24]
TESTED_SYSTEM: 5-HT2 receptors (Rattus norvegicus, UniProt P14842)
CAT: 1

COMPOUND: CC(C)N1CCN(CCN2CCN([C@@H]3C[C@@H](c4ccc(F)cc4)c4ccc(F)cc43)CC2)C1=O (relative stereo)
TESTED_SYSTEM: 5-HT2 receptors (Rattus norvegicus, UniProt P14842)
CAT: 1

COMPOUND: Cc1ccc2c(c1)[C@H](N1CCN(CCN3CCOC3=O)CC1)C[C@H]2c1ccc(F)cc1 (relative stereo)
TESTED_SYSTEM: 5-HT2 receptors (Rattus norvegicus, UniProt P14842)
CAT: 0

COMPOUND: CN1CCN(CCN2CCN([C@@H]3C[C@@H](c4ccc(F)cc4)c4ccccc43)CC2)C1=O (relative stereo)
TESTED_SYSTEM: 5-HT2 receptors (Rattus norvegicus, UniProt P14842)
CAT: 0

COMPOUND: CN1CCN(CCN2CCN([C@@H]3C[C@@H](c4ccc(F)cc4)c4ccc(F)cc43)CC2)C1=O (single isomer, unassigned) [-3]
TESTED_SYSTEM: 5-HT2 receptors (Rattus norvegicus, UniProt P14842)
CAT: 0

COMPOUND: CN1CCN(CCN2CCN([C@@H]3C[C@@H](c4ccc(F)cc4)c4ccc(F)cc43)CC2)C1=O (relative stereo) [compound 3]
TESTED_SYSTEM: 5-HT2 receptors (Rattus norvegicus, UniProt P14842)
CAT: 1

COMPOUND: Cc1ccc2c(c1)[C@H](N1CCN(CCN3CCNC3=O)CC1)C[C@H]2c1ccc(F)cc1 (relative stereo)
TESTED_SYSTEM: 5-HT2 receptors (Rattus norvegicus, UniProt P14842)
CAT: 0

COMPOUND: Fc1ccc([C@@H]2C[C@@H](N3CCN(CCN4CCNC4=S)CC3)c3cc(F)ccc32)cc1 (relative stereo) [compound 24]
TESTED_SYSTEM: 5-HT2 receptors (Rattus norvegicus, UniProt P14842)
CAT: 1

COMPOUND: OCCN1CCN([C@@H]2C[C@@H](c3ccc(F)cc3)c3ccc(C(F)(F)F)cc32)CC1 (racemic) [Tefludazine, reference compound]
TESTED_SYSTEM: 5-HT2 receptors (Rattus norvegicus, UniProt P14842)
CAT: 1

COMPOUND: O=C1NCCN1CCN1CCN([C@@H]2C[C@@H](c3ccc(F)cc3)c3ccccc32)CC1 (single isomer, unassigned) [+1]
TESTED_SYSTEM: 5-HT2 receptors (Rattus norvegicus, UniProt P14842)
CAT: 1

COMPOUND: O=C1NCCN1CCN1CCN([C@@H]2C[C@@H](c3ccc(F)cc3)c3ccc(F)cc32)CC1 (relative stereo) [compound 2]
TESTED_SYSTEM: 5-HT2 receptors (Rattus norvegicus, UniProt P14842)
CAT: 1

COMPOUND: O=C1NCCCN1CCN1CCN([C@@H]2C[C@@H](c3ccc(F)cc3)c3ccc(F)cc32)CC1 (relative stereo)
TESTED_SYSTEM: 5-HT2 receptors (Rattus norvegicus, UniProt P14842)
CAT: 0

COMPOUND: O=C1NCCN1CCN1CCN([C@@H]2C[C@@H](c3ccc(F)cc3)c3ccc(F)cc32)CC1 (single isomer, unassigned) [-2]
TESTED_SYSTEM: 5-HT2 receptors (Rattus norvegicus, UniProt P14842)
CAT: 0

COMPOUND: CSc1ccc2c(c1)[C@H](N1CCN(CCN3CCOC3=O)CC1)C[C@H]2c1ccc(F)cc1 (relative stereo)
TESTED_SYSTEM: 5-HT2 receptors (Rattus norvegicus, UniProt P14842)
CAT: 1

COMPOUND: CN1CCN(CCN2CCN([C@@H]3C[C@@H](c4ccc(F)cc4)c4ccc(F)cc43)CC2)C1=O (single isomer, unassigned) [+3]
TESTED_SYSTEM: 5-HT2 receptors (Rattus norvegicus, UniProt P14842)
CAT: 1

COMPOUND: O=C1NCCN1CCN1CCN([C@@H]2C[C@@H](c3ccc(F)cc3)c3ccccc32)CC1 (single isomer, unassigned) [-1]
TESTED_SYSTEM: 5-HT2 receptors (Rattus norvegicus, UniProt P14842)
CAT: 0

COMPOUND: O=C1NCCN1CCN1CCN([C@@H]2C[C@@H](c3ccc(F)cc3)c3ccc(F)cc32)CC1 (single isomer, unassigned) [+2]
TESTED_SYSTEM: 5-HT2 receptors (Rattus norvegicus, UniProt P14842)
CAT: 1

COMPOUND: O=C1NCCN1CCCN1CCN([C@@H]2C[C@@H](c3ccc(F)cc3)c3ccc(F)cc32)CC1 (relative stereo)
TESTED_SYSTEM: 5-HT2 receptors (Rattus norvegicus, UniProt P14842)
CAT: 1

---

Tested on: spontaneous hypertensive rats (SHR)
Assay: Antihypertensive effect in spontaneous hypertensive rats (SHR)
Type: in vivo
Details: Rattus norvegicus, ip, 1 h, 5 mg/kg ip, diastolic pressure (DAP), max change within one hour; read-out: Antihypertensive eff. SHR, max eff. in % of 5 mg/kg ip, DAP

MOLECULE: Fc1ccc([C@@H]2C[C@@H](N3CCN(CCN4CCCC4=S)CC3)c3cc(Cl)ccc32)cc1 (relative stereo) [compound 29]
TESTED_SYSTEM: spontaneous hypertensive rats (SHR)
RESULT_UNIT: %
change in vivo at 5 mg/kg: -4
//
MOLECULE: Fc1ccc([C@@H]2C[C@@H](N3CCN(CCN4CCNC4=S)CC3)c3cc(Cl)ccc32)cc1 (relative stereo) [compound 28]
TESTED_SYSTEM: spontaneous hypertensive rats (SHR)
RESULT_UNIT: %
change in vivo at 5 mg/kg: -10
//
MOLECULE: O=C1OCCN1CCCN1CCN([C@@H]2C[C@@H](c3ccc(F)cc3)c3ccc(F)cc32)CC1 (relative stereo) [compound 15]
TESTED_SYSTEM: spontaneous hypertensive rats (SHR)
RESULT_UNIT: %
change in vivo at 5 mg/kg: -18
//
MOLECULE: O=C1OCCN1CCN1CCN([C@@H]2C[C@@H](c3ccc(F)cc3)c3ccccc32)CC1 (relative stereo) [compound 7]
TESTED_SYSTEM: spontaneous hypertensive rats (SHR)
RESULT_UNIT: %
change in vivo at 5 mg/kg: -19
//
MOLECULE: O=C1OCCN1CCN1CCN([C@@H]2C[C@@H](c3ccc(F)cc3)c3ccc(Cl)cc32)CC1 (relative stereo) [compound 22]
TESTED_SYSTEM: spontaneous hypertensive rats (SHR)
RESULT_UNIT: %
change in vivo at 5 mg/kg: -21
//
MOLECULE: O=C1CCCN1CCN1CCN([C@@H]2C[C@@H](c3ccc(F)cc3)c3ccc(Cl)cc32)CC1 (relative stereo) [compound 21]
TESTED_SYSTEM: spontaneous hypertensive rats (SHR)
RESULT_UNIT: %
change in vivo at 5 mg/kg: -14
//
MOLECULE: CC(C)c1ccc2c(c1)[C@H](N1CCN(CCN3CCNC3=O)CC1)C[C@H]2c1ccc(F)cc1 (relative stereo) [compound 5]
TESTED_SYSTEM: spontaneous hypertensive rats (SHR)
RESULT_UNIT: %
change in vivo at 5 mg/kg: -10
//
MOLECULE: O=C1OCCN1CCN1CCN([C@@H]2C[C@@H](c3ccc(F)cc3)c3ccc(F)cc32)CC1 (relative stereo) [compound 8]
TESTED_SYSTEM: spontaneous hypertensive rats (SHR)
RESULT_UNIT: %
change in vivo at 5 mg/kg: -26
